tested on: K4 kissing-loop RNA reporter; assay: apparent KD of K4 kissing-loop reporter; higher = weaker reporter binding; details: Eterna round: R107; input ligand: arginine 13.2 mM;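 note: bound reporter read as fluorescence of individual clusters on recovered sequencing chips by microscopy, with normalized cluster intensities fitted with a binding model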
Kindly supply the reported apparent KD of K4 kissing-loop reporter values for the records listed here.
Numbers only, in nM.

sequenceContent	quantityName	unitAbbreviation	reportedResult
UAAUGCAUGACGGCCGCCACUAGUACUGGAGUGAUGUUGUGGUACGGCGGCAGUAUAGGGUGGACUAGGACCGGGUCAUGCAUAU [KL-XTryp-B11 #analogue]	apparent KD of K4 kissing-loop reporter	nM	443

Return reported apparent KD of K4 kissing-loop reporter values for all items listed beneath this line.
1. GGCGCUGUCUGUGCCGCCCUCCUCGUCCCUCGAGGACCGGUACGGCCGCCACUCGAGUGAUGUUCGGGUAGCCCUCCCUGCCAGC [BDazzled - #22 Exc. Tryptophan A]
2. ACGCGCGCGAGUGAUGUUCGGAGCGGCUGGCAGGAUAUGUAGCAAUGCAGAAGGGUCGUGGCGCUCCCUCCUGAAGGAGGGAGCG [#2 Exclusion - FMN A Attempt #25 (HarryS)]
3. CGGAACGCAUCGGCCGCCACUUUUAUCUGCAGUGAUGUUGCAGUAUCCGAGCAAGGCUGUUGUGAAAGGACCGGGAUGGUCCGUU [Tibeberi]
4. UUAGAGAUCUCAGGAUAUCAGUGAUGUUGGUAUCAAGAUCUGAGAUAGAAUUCUAUCUCAGAUCAAUGAGAAGGGAGAUCUCAUU [AK3.3 Exc FMN B]
5. UACAUAUCACUUUUUCUACAAUUAUUUAGUCAGGAUAUCGAUUAAACGAGAAGGGACAUUAUCAAGUGAUGUUUGAUAAUUCAAA [JR_Nu_SSFMNA_Sub028]

Found:
320
307
96.6
110
129
